ASSAY INFO: Rat exposure (plasma and brain pharmacokinetics)
Format: in vivo, Sprague–Dawley rats
APPLIED CONDITIONS: male, Sprague-Dawley, brain, 30 mg/kg PO, two hours post treatment, read-out: Brain concentration
Method: Two cohorts of rats were used in each study, with samples taken from one cohort at 0.5, 1, and 2 h post-dose, and samples taken from the second cohort at 1.5, 4, and 6 h post-dose. The first cohort of animals was sacrificed at 2 h post-dose, and the second at 6 h post-dose to allow for collection of brain samples.
PARAMETER: concentration at 2 h (ng/g)
Answers are plain numbers, in ng/g.

Retrieve concentration at 2 h measured for Cl.O=S(=O)(c1ccc(F)cc1)N(Cc1ncc[nH]1)c1ccccc1-c1ccccc1 and print it.
33.5

###

ASSAY INFO: Plasma and brain binding by equilibrium dialysis (unbound fraction)
Format: in vitro ADME
APPLIED CONDITIONS: rat; equilibrium dialysis at 1 μM, plasma; read-out: Fu (fraction unbound) plasma
PARAMETER: fraction unbound at 1 μM
Answers are plain numbers.

Look up fraction unbound at 1 μM of Cl.O=S(=O)(c1ccc(F)cc1)N(Cc1ncc[nH]1)c1ccccc1-c1ccccc1 [LSN2424100] and report it.
0.0341

###

EXPERIMENTAL SYSTEM: human OX2 receptors (Homo sapiens)
Sequence (O43614 whole entry): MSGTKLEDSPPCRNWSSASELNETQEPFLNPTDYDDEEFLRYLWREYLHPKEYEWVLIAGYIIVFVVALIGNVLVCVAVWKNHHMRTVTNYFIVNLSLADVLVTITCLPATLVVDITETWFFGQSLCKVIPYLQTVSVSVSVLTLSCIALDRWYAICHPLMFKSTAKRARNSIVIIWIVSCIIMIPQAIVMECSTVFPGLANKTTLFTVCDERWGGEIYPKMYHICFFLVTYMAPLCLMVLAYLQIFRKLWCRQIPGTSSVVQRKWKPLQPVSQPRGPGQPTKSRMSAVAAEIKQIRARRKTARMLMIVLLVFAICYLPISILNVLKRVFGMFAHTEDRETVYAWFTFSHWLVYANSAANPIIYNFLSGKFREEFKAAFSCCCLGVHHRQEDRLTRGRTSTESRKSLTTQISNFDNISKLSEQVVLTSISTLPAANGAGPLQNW
ASSAY INFO: biochemical
APPLIED CONDITIONS: read-out: Receptor binding affinity, Ki OX2; HEK293 membranes, [125I]-orexin A, 90 min; mean ± s.e.m. (n)
PARAMETER: Ki

For the compound CNC(=O)[C@@H](c1ccccc1)N1CCc2cc(OC)c(OC)cc2[C@@H]1CCc1ccc(C(F)(F)F)cc1 [Almorexant (R)] , give its reported Ki.
> 10 µM

###

ASSAY INFO: Rat exposure (plasma and brain pharmacokinetics)
Format: in vivo, Sprague–Dawley rats
APPLIED CONDITIONS: male, Sprague-Dawley, plasma, 30 mg/kg PO
PARAMETER: Cmax (ng/mL)
Give bare numbers, in ng/mL.

Using known records, supply Cmax for Cl.O=S(=O)(c1ccc(F)cc1)N(Cc1ncc[nH]1)c1ccccc1-c1ccccc1
196

###

ASSAY INFO: Rat exposure (plasma and brain pharmacokinetics)
Assay type: in vivo, Sprague–Dawley rats
APPLIED CONDITIONS: male, Sprague-Dawley, plasma, 30 mg/kg IP
PARAMETER: Tmax (min)
Give bare numbers, in min.

Give a short answer stating reported Tmax for Cl.O=S(=O)(c1ccc(F)cc1)N(Cc1ncc[nH]1)c1ccccc1-c1ccccc1 .
30

###

ASSAY INFO: Plasma and brain binding by equilibrium dialysis (unbound fraction)
Type: in vitro ADME
APPLIED CONDITIONS: rat; equilibrium dialysis at 1 μM, brain; read-out: Fu (fraction unbound) brain
PARAMETER: fraction unbound at 1 μM
One number for each entry.

Please give measured fraction unbound at 1 μM of the following entry: Cl.O=S(=O)(c1ccc(F)cc1)N(Cc1ncc[nH]1)c1ccccc1-c1ccccc1
0.0089

###

EXPERIMENTAL SYSTEM: UniProt O43614
ASSAY INFO: biochemical
PARAMETER: pKi
Answers are plain numbers, as −log10 of the molar value.

// Input: CNC(=O)[C@@H](c1ccccc1)N1CCc2cc(OC)c(OC)cc2[C@@H]1CCc1ccc(C(F)(F)F)cc1 [Almorexant (S)] . Output its pKi only.
8.16

###

ASSAY INFO: Rat exposure (plasma and brain pharmacokinetics)
Assay type: in vivo, Sprague–Dawley rats
APPLIED CONDITIONS: male, Sprague-Dawley, plasma, 30 mg/kg IP, read-out: AUC0–6 h
PARAMETER: AUC(0-t) (ng·h/mL)
Numbers only, in ng·h/mL.

Look up AUC(0-t) of Cl.O=S(=O)(c1ccc(F)cc1)N(Cc1ncc[nH]1)c1ccccc1-c1ccccc1 and report it.
1300

###

ASSAY INFO: Rat exposure (plasma and brain pharmacokinetics)
Format: in vivo, Sprague–Dawley rats
APPLIED CONDITIONS: male, Sprague-Dawley, plasma, 30 mg/kg IP, two hours post treatment, read-out: Plasma concentration
Procedure: Two cohorts of rats were used in each study, with samples taken from one cohort at 0.5, 1, and 2 h post-dose, and samples taken from the second cohort at 1.5, 4, and 6 h post-dose. The first cohort of animals was sacrificed at 2 h post-dose, and the second at 6 h post-dose to allow for collection of brain samples.
PARAMETER: concentration at 2 h (ng/mL)
One number for each entry, in ng/mL.

Please list concentration at 2 h recorded for the compound Cl.O=S(=O)(c1ccc(F)cc1)N(Cc1ncc[nH]1)c1ccccc1-c1ccccc1
149

###

ASSAY INFO: Rat exposure (plasma and brain pharmacokinetics)
Type: in vivo, Sprague–Dawley rats
APPLIED CONDITIONS: male, Sprague-Dawley, plasma, 30 mg/kg IP
PARAMETER: Cmax (ng/mL)
Numbers only, in ng/mL.

Fill in reported Cmax for this entry: Cl.O=S(=O)(c1ccc(F)cc1)N(Cc1ncc[nH]1)c1ccccc1-c1ccccc1
1170
